- target_under_test: SIK2 (Homo sapiens)
- Sequence (Q9H0K1 whole entry, species assumed): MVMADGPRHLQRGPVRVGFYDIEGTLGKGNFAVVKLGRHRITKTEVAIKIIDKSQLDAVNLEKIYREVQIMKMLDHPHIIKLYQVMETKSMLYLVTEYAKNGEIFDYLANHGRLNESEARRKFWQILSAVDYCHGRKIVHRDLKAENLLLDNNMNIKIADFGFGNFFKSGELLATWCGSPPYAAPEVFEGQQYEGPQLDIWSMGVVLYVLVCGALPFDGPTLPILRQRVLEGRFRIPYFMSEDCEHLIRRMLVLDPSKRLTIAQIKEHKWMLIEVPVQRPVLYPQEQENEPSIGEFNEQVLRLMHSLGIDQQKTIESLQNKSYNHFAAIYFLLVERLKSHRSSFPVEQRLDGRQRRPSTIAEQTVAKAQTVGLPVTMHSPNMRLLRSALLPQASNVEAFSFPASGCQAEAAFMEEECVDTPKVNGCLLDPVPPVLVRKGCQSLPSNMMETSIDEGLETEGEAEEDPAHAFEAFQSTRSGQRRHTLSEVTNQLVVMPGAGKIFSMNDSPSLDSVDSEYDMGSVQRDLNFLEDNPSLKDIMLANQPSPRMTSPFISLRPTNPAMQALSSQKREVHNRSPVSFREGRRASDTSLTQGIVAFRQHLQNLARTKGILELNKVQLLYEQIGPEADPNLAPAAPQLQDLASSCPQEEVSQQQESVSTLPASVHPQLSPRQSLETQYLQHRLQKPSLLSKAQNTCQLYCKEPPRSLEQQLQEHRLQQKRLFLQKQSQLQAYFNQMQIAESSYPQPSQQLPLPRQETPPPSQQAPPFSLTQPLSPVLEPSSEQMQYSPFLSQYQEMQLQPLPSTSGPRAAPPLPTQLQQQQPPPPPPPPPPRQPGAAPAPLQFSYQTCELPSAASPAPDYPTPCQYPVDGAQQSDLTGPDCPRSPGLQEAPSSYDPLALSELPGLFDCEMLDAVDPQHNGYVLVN
- test_protocol: SIK2 Enzymatic Assay High Version 2 (High ATP)
- Format: biochemical
metric_name: IC50 (pM)

>  <smiles_string>
Cc1cc(-c2ccn3nc(NC(=O)C4CC4)c(C)c3c2)c(O[C@H]2C[C@H]3COC[C@@H](C2)N3)cn1

>  <metric_name>
IC50

>  <reading_qualifier>
=

>  <observed_value>
912

$$$$
>  <smiles_string>
Cc1cc(-c2ccn3nc(NC(=O)C4CC4)cc3c2)c(O[C@H]2[C@@H]3CN(C)[C@H]2CO3)cn1

>  <metric_name>
IC50

>  <reading_qualifier>
=

>  <observed_value>
218000

$$$$
>  <smiles_string>
Cc1cc(-c2ccn3nc(Nc4cc(C)nc(C)n4)cc3c2)c(O[C@H]2C[C@H]3COC[C@@H](C2)N3C)cn1

>  <metric_name>
IC50

>  <reading_qualifier>
<

>  <observed_value>
847

$$$$
>  <smiles_string>
Cc1cc(-c2ccn3nc(Nc4cccnn4)cc3c2)c(O[C@H]2C[C@H]3COC[C@@H](C2)N3)cn1

>  <metric_name>
IC50

>  <reading_qualifier>
<

>  <observed_value>
847

$$$$
